- TEST TARGET: IDH1 R132H (Homo sapiens, UniProt O75874, R132H)
- Construct: made in house; host or cells: Escherichia coli BL21(DE3) pLyS
- Sequence (O75874 whole entry R132H): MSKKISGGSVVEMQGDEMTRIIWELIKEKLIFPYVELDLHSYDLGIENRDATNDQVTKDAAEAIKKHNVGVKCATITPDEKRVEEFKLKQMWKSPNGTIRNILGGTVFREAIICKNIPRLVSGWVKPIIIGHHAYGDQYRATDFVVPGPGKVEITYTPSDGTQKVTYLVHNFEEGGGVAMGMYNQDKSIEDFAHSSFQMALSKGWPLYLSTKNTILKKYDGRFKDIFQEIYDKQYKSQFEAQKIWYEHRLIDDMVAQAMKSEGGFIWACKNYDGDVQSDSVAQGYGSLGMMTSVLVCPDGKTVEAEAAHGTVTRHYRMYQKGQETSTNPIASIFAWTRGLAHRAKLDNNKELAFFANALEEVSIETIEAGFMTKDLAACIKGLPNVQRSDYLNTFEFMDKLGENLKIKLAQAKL
- ASSAY REMARKS: Ligand-observed 1H NMR (CPMG-edited, 700 MHz) binding, IDH1 R132H
- CONDITIONS: line broadening, 10 μM inhibitor, 50 mM tris-D11-HCl pH 7.5
PROPERTY MEASURED: Kd (µM)

CC(C)(O)CNc1nc(Nc2ccnc(C(F)(F)F)c2)nc(-c2cccc(C(F)(F)F)n2)n1 ... 12

(1) Cc1ccccc1C(C(=O)NC1CCCCC1)N(C(=O)Cn1ccnc1C)c1cccc(F)c1 (stereo not drawn)
(2) COc1c(C)cc(NC(=O)c2nn(Cc3ccc(F)cc3)c3c2CN(C(=O)c2ccc[nH]2)C[C@]3(C)C(N)=O)cc1C
[ask] Name the one with the greater Kd value, either 1 or 2 as given. Write down the label attached to your selection.
[reply] 1

Data provenance: paper PMC10108345
